Assay: Cytotoxicity against HK-2 cells incubated for 48 hrs by MTT assay
Format: toxicity, cell-based
Conditions: human
// IC50 at 48 h lookup, one value per entry

{"Molecule": "CN(C)CCN1C(=O)c2cccc3c(N4CCNCC4)ccc(c23)C1=O", "Measured Value": "6.38 µM"}

Qu. Requested read-out: IC50 at 48 h. Entry: CN(C)CCN1C(=O)c2cccc3cc(N)cc(c23)C1=O [AMONAFIDE]
Ans. 27.2 µM

Qu. Requested read-out: IC50 at 48 h. Entry: CN(C)CCN1C(=O)c2cccc3cc([N+](=O)[O-])cc(c23)C1=O [MITONAFIDE]
Ans. 2.13 µM

Qu. Requested read-out: IC50 at 48 h. Entry: CN(C)CCN1C(=O)c2cccc3c(N4CCN(C(=O)CCOCCOCCOCCOCCNC(=O)CCCCC5SCC6NC(=O)NC65)CC4)ccc(c23)C1=O (centres undefined)
Ans. > 50 µM

###

System: T-24
Test: Antiproliferative activity against human T24 cells incubated for 48 hrs by MTT assay
Assay type: functional, cell-based
Settings: T-24, 48 h
Value Kind: IC50

Solved cases below.
{"Compound": "CN(C)CCN1C(=O)c2cccc3c(N4CCNCC4)ccc(c23)C1=O", "Target Entity": "T-24", "IC50": "5.86 µM"}
{"Compound": "CN(C)CCN1C(=O)c2cccc3c(N4CCN(C(=O)CCOCCOCCOCCOCCNC(=O)CCCCC5SCC6NC(=O)NC65)CC4)ccc(c23)C1=O (stereo not drawn)", "Target Entity": "T-24", "IC50": "> 50 µM"}

Qu. Requested read-out: IC50. Entry: CN(C)CCN1C(=O)c2cccc3cc(N)cc(c23)C1=O [AMONAFIDE]
Ans. 7.94 µM

###

Test: Cytotoxicity against HUVEC cells incubated for 48 hrs by MTT assay
Assay type: toxicity, cell-based
Details: human
// IC50 at 48 h lookup, one value per entry
Response body: numeric value in µM, unit text excluded.

Solved cases below.
{"Compound": "CN(C)CCN1C(=O)c2cccc3c(N4CCNCC4)ccc(c23)C1=O", "Value Kind": "IC50 at 48 h", "Measured Value": 1.99}
{"Compound": "CN(C)CCN1C(=O)c2cccc3cc([N+](=O)[O-])cc(c23)C1=O [MITONAFIDE]", "Value Kind": "IC50 at 48 h", "Measured Value": 5.9}

// switching to the query compound
Qu. Requested read-out: IC50 at 48 h. Entry: CN(C)CCN1C(=O)c2cccc3cc(N)cc(c23)C1=O [AMONAFIDE]
Ans. 21.9

###

Experiment: Metabolic stability in male CD-1 mouse liver microsomes assessed as half life at 2 uM incubated for 60 min in the presence of NADPH by LC-MS/MS analysis
Format: ADME, Microsome
Value Kind: half-life at 2 µM (min)
Response body: numeric value in min, unit text excluded.

Qu. Requested read-out: half-life at 2 µM. Entry: CN(C)CCN1C(=O)c2cccc3c(N4CCN(C(=O)CCOCCOCCOCCOCCNC(=O)CCCCC5SCC6NC(=O)NC65)CC4)ccc(c23)C1=O (configuration not stated)
Ans. 36.6
